Listed below: IC50 values for each entry.
System: Escherichia coli
Test: Supercoiling inhibition assay using purified DNA gyrase isolated from Escherichia coli H560
Format: functional
Settings: read-out: I50

// worked examples, IC50 included
compound: N[C@H]1CC(CO)N(c2cc3c(cc2F)c(=O)c(C(=O)O)cn3-c2ccc(F)cc2F)C1 (stereo not given in full)
IC50: 0.4 µg/mL
--
compound: N[C@H]1CC(CF)N(c2nc3c(cc2F)c(=O)c(C(=O)O)cn3-c2ccc(F)cc2F)C1 (stereo not given in full)
IC50: 0.75 µg/mL
--
compound: NC1CCN(c2nc3c(cc2F)c(=O)c(C(=O)O)cn3-c2ccc(F)cc2F)C1 (stereo not given) [TOSUFLOXACIN]
IC50: 0.4 µg/mL

Q: Tell me measured IC50 for O=C(O)c1cn(C2CC2)c2cc(N3CCNCC3)c(F)cc2c1=O [CIPROFLOXACIN] please.
Result: 0.9 µg/mL

Q: Input "C[C@@H]1C[C@H](N)CN1c1cc2c(cc1F)c(=O)c(C(=O)O)cn2-c1ccc(F)cc1F" , output reported IC50.
Result: 18 µg/mL

###

Assay: Compound was evaluated for the solubility in Ringer's buffer solution
Type: ADME
Settings: Ringer's buffer solution; read-out: Solubility
Recorded solubility values for a group of molecules are listed next.
Report the figure in µg/mL without appending any unit label.

// known answers, use as guide
molecule: N[C@H]1CC(CO)N(c2cc3c(cc2F)c(=O)c(C(=O)O)cn3-c2ccc(F)cc2F)C1 (some centres not stated)
measuredResult: 60
--
molecule: N[C@H]1CC(CN2CCCC2)N(c2cc3c(cc2F)c(=O)c(C(=O)O)cn3-c2ccc(F)cc2F)C1 (some centres not stated)
measuredResult: 680
--
molecule: C[C@H]1C[C@H](N)CN1c1cc2c(cc1F)c(=O)c(C(=O)O)cn2-c1ccc(F)cc1F
measuredResult: 53
--
molecule: C[C@@H]1C[C@H](N)CN1c1nc2c(cc1F)c(=O)c(C(=O)O)cn2-c1ccc(F)cc1F
measuredResult: 340
--
molecule: C[C@@H]1C[C@H](N)CN1c1cc2c(cc1F)c(=O)c(C(=O)O)cn2-c1ccc(F)cc1F
measuredResult: 182

Q: Answer with the recorded solubility for the molecule listed here: "N[C@H]1C[C@@H](CO)N(c2cc3c(cc2F)c(=O)c(C(=O)O)cn3-c2ccc(F)cc2F)C1"
Result: 60

Q: Look up solubility of "C[C@H]1C[C@H](N)CN1c1nc2c(cc1F)c(=O)c(C(=O)O)cn2-c1ccc(F)cc1F" and report it.
Result: 150

###

Tested on: Klebsiella pneumoniae
Assay: In vitro Minimum inhibitory concentration against Klebsiella pneumoniae 8045
Assay type: functional
MIC values for the compounds below.
Report the value in µg/mL with no unit label.

compound: N[C@H]1C[C@@H](CO)N(c2cc3c(cc2F)c(=O)c(C(=O)O)cn3-c2ccc(F)cc2F)C1
measurementUnit: µg/mL
MIC: 3.1

compound: CCC1C[C@H](N)CN1c1cc2c(cc1F)c(=O)c(C(=O)O)cn2-c1ccc(F)cc1F (stereo partly drawn)
measurementUnit: µg/mL
MIC: 0.05

Q: Give the measured MIC for "O=C(O)c1cn(-c2ccc(F)cc2)c2cc(N3CCC[C@@H]3CO)c(F)cc2c1=O"
Result: 0.78

Q: Please indicate MIC recorded for N[C@H]1CC(CO)N(c2cc3c(cc2F)c(=O)c(C(=O)O)cn3-c2ccc(F)cc2F)C1 (stereo partly drawn)
Result: 0.78

###

Tested on: Streptococcus pyogenes
Assay: In vitro Minimum inhibitory concentration against Streptococcus pyogenes 930
Assay type: functional
Collected MIC values appear next to each entry.
The answer is to be given in mg/L; state only the numeric part.

compound: CCC1C[C@H](N)CN1c1cc2c(cc1F)c(=O)c(C(=O)O)cn2-c1ccc(F)cc1F (some centres undefined)
measurementUnit: mg/L
MIC: 0.1
//
compound: COCC1C[C@H](N)CN1c1nc2c(cc1F)c(=O)c(C(=O)O)cn2-c1ccc(F)cc1F (some centres undefined)
measurementUnit: mg/L
MIC: 0.78

Q: Name the recorded MIC of the compound listed here: "O=C(O)c1cn(-c2ccc(F)cc2)c2cc(N3CCC[C@H]3CO)c(F)cc2c1=O"
Result: 50

Q: Give me measured MIC, please, for this compound: "O=C(O)c1cn(-c2ccc(F)cc2F)c2cc(N3C[C@@H]4C[C@H]3CN4)c(F)cc2c1=O"
Result: 0.78

###

Tested on: Pseudomonas aeruginosa
Experiment: In vitro Minimum inhibitory concentration against Pseudomonas aeruginosa 5007
Assay type: functional
The following compounds are shown together with reported log10 of MIC values.
# log10 transformed; quantity=MIC; unit=µg/mL

Worked set:
compound: O=C(O)c1cn(-c2ccc(F)cc2F)c2cc(N3C[C@@H]4C[C@H]3CN4)c(F)cc2c1=O
measuredResult: 0.19

compound: C[C@@H]1C[C@H](N)CN1c1nc2c(cc1F)c(=O)c(C(=O)O)cn2-c1ccc(F)cc1F
measuredResult: 1.10

compound: CCC1C[C@H](N)CN1c1cc2c(cc1F)c(=O)c(C(=O)O)cn2-c1ccc(F)cc1F (stereo not given in full)
measuredResult: 0.79

compound: O=C(O)c1cn(-c2ccc(F)cc2)c2cc(N3CCC[C@@H]3CO)c(F)cc2c1=O
measuredResult: 0.49

compound: O=C(O)c1cn(-c2ccc(F)cc2F)c2nc(N3C[C@@H]4C[C@H]3CN4)c(F)cc2c1=O
measuredResult: -0.41

compound: C[C@H]1C[C@H](N)CN1c1nc2c(cc1F)c(=O)c(C(=O)O)cn2-c1ccc(F)cc1
measuredResult: -0.41

compound: NC1CCN(c2nc3c(cc2F)c(=O)c(C(=O)O)cn3-c2ccc(F)cc2F)C1 (stereo not given) [TOSUFLOXACIN]
measuredResult: -0.11

compound: C[C@H]1C[C@H](N)CN1c1cc2c(cc1F)c(=O)c(C(=O)O)cn2-c1ccc(F)cc1F
measuredResult: 0.49

Continue with the compound presented below.
Q: For the compound N[C@H]1CC(CO)N(c2cc3c(cc2F)c(=O)c(C(=O)O)cn3-c2ccc(F)cc2F)C1 (stereo not given in full) , give its reported log10 of MIC.
Result: -0.11

###

Tested on: Staphylococcus epidermidis
Assay: In vitro Minimum inhibitory concentration against Staphylococcus epidermidis 3519
Type: functional
hey, just use Y if measured MIC is less than 0.2 µg/mL, otherwise N

molecule: NC1CCN(c2cc3c(cc2F)c(=O)c(C(=O)O)cn3-c2ccc(F)cc2F)C1 (centres undefined)
category: Y
--
molecule: C[C@H]1C[C@H](N)CN1c1nc2c(cc1F)c(=O)c(C(=O)O)cn2-c1ccc(F)cc1F
category: Y
--
molecule: O=C(O)c1cn(-c2ccc(F)cc2F)c2nc(N3C[C@@H]4C[C@H]3CN4)c(F)cc2c1=O
category: N
--
molecule: N[C@H]1C[C@@H](CO)N(c2cc3c(cc2F)c(=O)c(C(=O)O)cn3-c2ccc(F)cc2F)C1
category: N
--
molecule: N[C@H]1CC(CO)N(c2cc3c(cc2F)c(=O)c(C(=O)O)cn3-c2ccc(F)cc2F)C1 (some centres undefined)
category: N

Q: Take the molecule "C[C@@H]1C[C@H](N)CN1c1nc2c(cc1F)c(=O)c(C(=O)O)cn2-c1ccc(F)cc1F" and say whether its MIC is less than 0.2 µg/mL.
Result: N

Q: Strictly below 0.2 µg/mL in MIC? "C[C@H]1C[C@H](N)CN1c1cc2c(cc1F)c(=O)c(C(=O)O)cn2-c1ccc(F)cc1"
Result: Y

Q: State whether 0.2 µg/mL exceeds MIC recorded for N[C@H]1CC(CN2CCCC2)N(c2cc3c(cc2F)c(=O)c(C(=O)O)cn3-c2ccc(F)cc2F)C1 (some centres undefined) .
Result: N

Q: is_below(MIC, 0.2 µg/mL) for "O=C(O)c1cn(-c2ccc(F)cc2)c2cc(N3CCC[C@@H]3CO)c(F)cc2c1=O" ?
Result: N

###

System: Streptococcus agalactiae
Experiment: In vitro Minimum inhibitory concentration against Streptococcus agalactiae CMX 508
Format: functional
assayReadout: log10 of MIC (log10 of the value in µg/mL)
Heads up: the numbers are on a log10 scale; they represent MIC in µg/mL.

Q: Please look at "O=C(O)c1cn(-c2ccc(F)cc2)c2cc(N3CCC[C@H]3CO)c(F)cc2c1=O" and tell me its recorded log10 of MIC on Streptococcus agalactiae.
Result: 2.00

Q: Fetch value of log10 of MIC on Streptococcus agalactiae for "C[C@@H]1C[C@H](N)CN1c1cc2c(cc1F)c(=O)c(C(=O)O)cn2-c1ccc(F)cc1F" .
Result: 0.79

Q: // fetch log10 of MIC; item: "N[C@H]1C[C@@H](CO)N(c2cc3c(cc2F)c(=O)c(C(=O)O)cn3-c2ccc(F)cc2F)C1" ; system: Streptococcus agalactiae
Result: 1.10

Q: Write down measured log10 of MIC (Streptococcus agalactiae) for this compound. N[C@H]1CC(CN2CCCC2)N(c2cc3c(cc2F)c(=O)c(C(=O)O)cn3-c2ccc(F)cc2F)C1 (stereo not given in full)
Result: 1.40

Q: Would you please give the reported log10 of MIC of N[C@H]1CC(CO)N(c2cc3c(cc2F)c(=O)c(C(=O)O)cn3-c2ccc(F)cc2F)C1 (stereo not given in full) with Streptococcus agalactiae?
Result: -0.11

Values were extracted from ChEMBL document CHEMBL1124182.
